tested on: HCT-116; experiment: Cytotoxicity against human HCT116 cells assessed as reduction in cell viability after 72 hrs by MTT assay; assay type: functional, cell-based; settings: HCT-116, 72 h
experimental-endpoint: IC50 (µM)
Numeric answer only, unit µM assumed.

Example molecules with recorded IC50:
molecule | IC50 [µM]
C/C=C(/C)C(=O)O[C@H]1[C@@H](O)[C@@H]2[C@H](OC(=O)[C@H]2COC)[C@@H](OC(=O)C(C)CC)[C@@](C)(O)C(=O)CC[C@H]1C (relative stereo) | 58
C=C1C(=O)O[C@H]2[C@H]1[C@H](OC(=O)C(C)C)C(=O)[C@H](C)CCC[C@](C)(O)[C@@H]2OC(=O)C(C)C | 2.65
C=C1C(=O)O[C@H]2[C@H]1[C@H](O)[C@H](OC(=O)/C(C)=C\C)[C@H](C)CCC(=O)[C@](C)(O)[C@@H]2OC(=O)C(C)C | 0.87
C/C=C(/C)C(=O)O[C@H]1[C@@H](O)[C@@H]2[C@H](OC(=O)[C@H]2COC)[C@@H](OC(=O)/C(C)=C\C)[C@@](C)(O)C(=O)CC[C@H]1C (relative stereo) | 36.4
C=C1C(=O)O[C@H]2[C@H]1[C@H](O)[C@]1(O)O[C@@H](C[C@H]1C)C[C@](C)(O)[C@@H]2OC(=O)/C(C)=C\C | 37.5

Suppose we examine the molecule C/C=C(/C)C(=O)O[C@@H]1[C@H]2OC(=O)[C@@H](COC)[C@@H]2[C@H](O)[C@H](OC(=O)CC(C)C)[C@H](C)CCC(=O)[C@]1(C)O ; what IC50 value has been reported?
71.5

Reported IC50, molecule COc1cccc2c1C(=O)c1c(O)c3c(c(O)c1C2=O)C[C@@](O)(C(=O)CO)C[C@@H]3O[C@H]1C[C@H](N)[C@H](O)[C@H](C)O1 [DOXORUBICIN] : ____
0.007

# IC50 lookup, item C/C=C(/C)C(=O)O[C@H]1[C@@H](O)[C@@H]2[C@H](OC(=O)[C@H]2COC)[C@@H](OC(=O)C(C)C)[C@@](C)(O)C(=O)CC[C@H]1C
49.6

Entry C=C1C(=O)O[C@H]2[C@H]1[C@H](OC(=O)/C(C)=C\C)C(=O)[C@H](C)CCC[C@](C)(O)[C@@H]2OC(=O)C(C)C (relative stereo) : reported IC50 = ?
5.51

----------
tested on: MDA-MB-231; test: Cytotoxicity against human MDA-MB-231 cells assessed as reduction in cell viability after 72 hrs by MTT assay; assay type: functional, cell-based; conditions: MDA-MB-231, 72 h
experimental-endpoint: pIC50
The value called pIC50 is obtained by taking minus log10 of the concentration in mol/L.

compound | pIC50
C=C1C(=O)O[C@H]2[C@H]1[C@H](OC(=O)C(C)C)C(=O)[C@H](C)CCC[C@](C)(O)[C@@H]2OC(=O)C(C)C | 5.13

Shifting focus to the compound that follows.
Under MDA-MB-231: pIC50 value of COc1cccc2c1C(=O)c1c(O)c3c(c(O)c1C2=O)C[C@@](O)(C(=O)CO)C[C@@H]3O[C@H]1C[C@H](N)[C@H](O)[C@H](C)O1 [DOXORUBICIN] ?
6.89

----------
system: BEL-7404 tumor cell line; experiment: Cytotoxicity against human Bel7404 cells assessed as reduction in cell viability after 72 hrs by MTT assay; format: functional, cell-based; conditions: BEL-7404, 72 h
experimental-endpoint: pIC50
Keep in mind that pIC50 stands for -log10 of concentration in molar terms.

# pIC50 lookup, item C/C=C(/C)C(=O)O[C@@H]1[C@H]2OC(=O)[C@@H](COC)[C@@H]2[C@H](O)[C@H](OC(=O)CC(C)C)[C@H](C)CCC(=O)[C@]1(C)O
4.10

May I ask what pIC50 has been recorded for C=C1C(=O)O[C@H]2[C@H]1[C@H](O)[C@H](OC(=O)/C(C)=C\C)[C@H](C)CCC(=O)[C@](C)(O)[C@@H]2OC(=O)C(C)C ?
5.74

----------
test system: MDA-MB-231; assay: Cytotoxicity against human MDA-MB-231 cells assessed as reduction in cell viability after 72 hrs by MTT assay; assay type: functional, cell-based; conditions: MDA-MB-231, 72 h
pIC50: −log10 of the molar value.
experimental-endpoint: pIC50

Query the reported pIC50 for MDA-MB-231; item: C=C1C(=O)O[C@H]2[C@H]1[C@H](O)[C@]1(O)O[C@@H](C[C@H]1C)C[C@](C)(O)[C@@H]2OC(=O)/C(C)=C\C
< 4.00

Under MDA-MB-231: pIC50 value of C/C=C(/C)C(=O)O[C@H]1[C@@H](O)[C@@H]2[C@H](OC(=O)[C@H]2COC)[C@@H](OC(=O)C(C)C)[C@@](C)(O)C(=O)CC[C@H]1C ?
< 4.00

Form field - read-out: pIC50; system: MDA-MB-231; submitted item: C/C=C(/C)C(=O)O[C@H]1[C@@H](O)[C@@H]2[C@H](OC(=O)[C@H]2COC)[C@@H](OC(=O)/C(C)=C\C)[C@@](C)(O)C(=O)CC[C@H]1C (relative stereo)
< 4.00

----------
tested on: BEL-7404 tumor cell line; assay: Cytotoxicity against human Bel7404 cells assessed as reduction in cell viability after 72 hrs by MTT assay; format: functional, cell-based; conditions: BEL-7404, 72 h
Listed here are compounds together with their documented IC50.
Report the value in µM with no unit label.

compound | IC50 (µM)
C=C1C(=O)O[C@H]2[C@H]1[C@@H](O)[C@]1(O)O[C@@H](C[C@H]1C)C[C@](C)(O)[C@@H]2OC(=O)C(C)C | 81.9
C/C=C(/C)C(=O)O[C@H]1[C@@H](O)[C@@H]2[C@H](OC(=O)[C@H]2COC)[C@@H](OC(=O)/C(C)=C\C)[C@@](C)(O)C(=O)CC[C@H]1C (relative stereo) | 88.1
C=C1C(=O)O[C@H]2[C@H]1[C@H](OC(=O)C(C)C)C(=O)[C@H](C)CCC[C@](C)(O)[C@@H]2OC(=O)C(C)C | 7.32
C/C=C(/C)C(=O)O[C@H]1[C@@H](O)[C@@H]2[C@H](OC(=O)[C@H]2COC)[C@@H](OC(=O)C(C)CC)[C@@](C)(O)C(=O)CC[C@H]1C (relative stereo) | 62.9
C=C1C(=O)O[C@H]2[C@H]1[C@H](OC(=O)/C(C)=C\C)C(=O)[C@H](C)CCC[C@](C)(O)[C@@H]2OC(=O)C(C)C (relative stereo) | 7.35

IC50 for COc1cccc2c1C(=O)c1c(O)c3c(c(O)c1C2=O)C[C@@](O)(C(=O)CO)C[C@@H]3O[C@H]1C[C@H](N)[C@H](O)[C@H](C)O1 ?
0.13

Field request: IC50 | item: C=C1C(=O)O[C@H]2[C@H]1[C@@H](O)[C@]1(O)O[C@@H](C[C@H]1C)C[C@](C)(O)[C@@H]2OC(=O)/C(C)=C\C (relative stereo)
56.4

What value of IC50 has been reported for the following compound? C/C=C(/C)C(=O)O[C@H]1[C@@H](O)[C@@H]2[C@H](OC(=O)[C@H]2COC)[C@@H](OC(=O)C(C)C)[C@@](C)(O)C(=O)CC[C@H]1C
71.7

Returns the measured IC50 for the input compound. Input: C=C1C(=O)O[C@H]2[C@H]1[C@H](O)[C@]1(O)O[C@@H](C[C@H]1C)C[C@](C)(O)[C@@H]2OC(=O)/C(C)=C\C
69.6

FYI, the data here is from ChEMBL document CHEMBL4041470.
